Collected literature values of IC50 measured for SYK kinase (Homo sapiens).

CC(C)Cn1cc(Nc2nc3cc(S(C)(=O)=O)ccc3c3cn[nH]c23)cn1 : 10 to 100 nM
CN1CCN(c2ccc(Nc3nc4cncc(-c5cnn(CCN6CCOCC6)c5)n4n3)cc2)CC1 : 5000 to 10000 nM
CC1(C)C(=O)Nc2cc(Nc3nc4c(N5CCc6ccc(N)cc65)nccn4n3)ccc21 : < 100 nM
COc1cc(-c2cc3nccc(-c4cc(C(=O)N[C@@H]5CCCC[C@@H]5N)ccc4F)c3o2)cc(OC)c1OC : 300 to 3000 nM
COCCn1cc(Nc2nc(C3CCC3)nc3cn[nH]c23)cn1 : 10 to 100 nM
COc1cc(Nc2cc(Oc3ccc(NC(=O)Nc4cc(C(C)(C)C)cc(NS(C)(=O)=O)c4OC)c4ccccc34)ccn2)ccc1C(=O)NCCOCCOCCO : 107 nM

What value of IC50 on SYK kinase (Homo sapiens) does COc1cccc(C(=O)c2c[nH]c3ncc(-c4cccc(/C=C/C(=O)O)c4)cc23)c1 have? ≤ 10000 nM

---

pIC50: −log10 of the molar value.
Collected literature values of pIC50 measured for SYK kinase (Homo sapiens).

N[C@H]1CCCC[C@H]1Nc1nc(/C=C/c2ccc(F)cc2)c2c(c1F)CNC2=O : 8.60
COc1cc(-c2cc3nccc(-c4nnc(C)o4)c3o2)cc(OC)c1OC : 5.52 to 6.52
COc1cc(-c2cc3nccc(-c4cc(F)cc(C(=O)NCCN)c4)c3o2)cc(OC)c1OC : 6.52 to 7.00
CC1(C)C(=O)Nc2cc(Nc3nc4cncc(-c5cnc6ccccc6c5)n4n3)ccc21 : 5.30 to 6.00
COc1cc(-c2cc3nccc(-c4cccc5[nH]ncc45)c3o2)cc(OC)c1OC : > 6.52

What value of measured pIC50 is listed for COc1ccc(Nc2nc(-c3sccc3C)nc3cn[nH]c23)cc1OC ? 7.00 to 8.00

Next up: Cc1cc(-c2cc3nccnc3c(OC[C@@H]3CN(C(N)=O)CCO3)n2)ccc1N(C)C 7.44

Next up: COCCOCCOCCOCCOc1cc(Nc2nccc(Oc3ccc(NC(=O)Nc4cc(C(C)C)nn4-c4cccc(CP(C)(C)=O)c4)c4ccccc34)n2)cc(OC)c1 8.40

Next up: CC(C)(C)c1cc(NC(=O)Nc2ccc(Oc3ccnc(Nc4ccc5ncsc5c4)n3)c3ccccc23)n(-c2ccc(OCCN3CCOCC3)cc2)n1 7.60

---

Collected literature values of IC50 measured for SYK kinase (Homo sapiens, UniProt P43405).

Worked examples, 8 compounds total:
COc1cc(-c2cc3nccc(-c4cccc(C(=O)NCCN(C)C)c4)c3o2)cc(OC)c1OC : < 300 nM
CC(C)(C)c1cc(NC(=O)Nc2ccc(Oc3ccnc(Nc4ccccc4)c3)c3ccccc23)n(-c2cccc(CP(C)(C)=O)c2)n1 : 96 nM
COCCNC(=O)c1cnc(Nc2cc(COc3ccc(NC(=O)Nc4cc(C(C)(C)C)nn4-c4ccc(C)s4)c4ccccc34)ccn2)cn1 : > 14200 nM
CC(=O)N1CCN(c2ccc(Nc3nc4ccc(S(C)(=O)=O)cc4c4cn[nH]c34)cc2)CC1 : < 10 nM
c1nn(C2CCCOC2)cc1Nc1nc(-c2ccc3cn[nH]c3c2)nc2cn[nH]c12 (stereo not drawn) : 10 to 100 nM
CC(C)Cn1cc(Nc2nc(C(C)(C)C)nc3cn[nH]c23)cn1 : 100 to 1000 nM
CC(C)(C)N1CCN(c2ccc(Nc3nc4ccc(S(C)(=O)=O)cc4c4cn[nH]c34)cc2)CC1 : 10 to 100 nM
FCCn1cc(Nc2nc(C3CC3)nc3cn[nH]c23)cn1 : 10 to 100 nM

Read the next record carefully.
What value of IC50 on SYK kinase (Homo sapiens, UniProt P43405) does Cn1c(=O)c(Nc2ccc(C3CCOCC3)cn2)cc2cc(-c3cc[nH]n3)ccc21 have? 40.7 nM

---

Collected literature values of IC50 measured for SYK kinase (Homo sapiens).
Please give a number only; it is taken to be in nM.

CC(C)(C)c1cc(NC(=O)Nc2ccc(OCc3ccnc(Nc4cnccn4)c3)c3ccccc23)n(-c2cccc(Cl)c2)n1 : 5820
COc1ccc(-n2nc(C(C)(C)C)cc2NC(=O)Nc2ccc(OCc3ccnc(Nc4cnccn4)c3)c3ccccc23)cc1Cl : 6700
N[C@H]1CCCC[C@H]1Nc1cc2cn[nH]c(=O)c2c(Nc2cccc3[nH]ncc23)n1 : 5.2

Read the next record carefully.
What value of measured IC50 is listed for Cc1nn(C)c2cc(-c3nc(N[C@@H]4CCOC[C@@H]4N)c(F)c4c3C(=O)NC4)sc12 ? 0.2

---

Collected literature values of IC50 measured for SYK kinase (Homo sapiens, UniProt P43405).

Worked examples, 2 molecules total:
COc1cc(-c2cc3nccc(-c4ccc[nH]4)c3o2)cc(OC)c1OC : 300 to 3000 nM
COc1ccc(C(C)C)cc1-c1cnc2[nH]c(=O)n([C@H](C)C(C)C)c2n1 : 100 to 5000 nM

Read the next record carefully.
What value of measured IC50 is listed for OCCn1cc(Nc2nc(-c3cocn3)nc3cn[nH]c23)cn1 ? 10 to 100 nM

---

Collected literature values of pIC50 measured for SYK kinase (Homo sapiens).
pIC50: −log10 of the molar value.

Worked examples, 2 compounds total:
Fc1ccc(Nc2nccc(-c3nccs3)n2)cc1 : < 5.70
O=C1CCc2ccc(Nc3nc(C4CC4)nc4cn[nH]c34)cc2N1 : > 8.00

Read the next record carefully.
What value of pIC50 on SYK kinase (Homo sapiens) does COc1cc(Nc2nc3cncc(-c4cccc(O)c4)n3n2)ccc1N1CCN(C)CC1 have? > 6.00

---

Collected literature values of IC50 measured for SYK kinase (Homo sapiens).

What value of IC50 on SYK kinase (Homo sapiens) does CN(CCCCCCC(=O)NO)c1ccc(Nc2nc(-c3ccc4cn[nH]c4c3)cn3ccnc23)cc1 have? < 0.05 µM

Next up: NS(=O)(=O)c1cccc(Nc2nc3c(-c4ccccc4-c4ccccc4)nccn3n2)c1 3 to 50 µM

Next up: CC(C)(C)c1cc(NC(=O)Nc2ccc(Oc3ccnc(Nc4ccc5c(c4)CCC5)n3)c3ccccc23)n(-c2ccc(OCCN3CCOCC3)cc2)n1 0.028 µM

Next up: CC(=O)N1CCO[C@H](COc2nc(-c3ccc(N4CCN(C)CC4)c(C)c3)cc3nccnc23)C1 0.081 µM

Next up: CC1(C)C(=O)Nc2cc(Nc3nc4c(N5C[C@H](CO)C[C@H]5c5ccccc5)nccn4n3)ccc21 (single isomer, unassigned) 0.1 to 0.3 µM

Next up: C#Cc1cc(Nc2nccc(Oc3ccc(NC(=O)Nc4cc(C(C)(C)C)cc(NS(C)(=O)=O)c4OC)c4ccccc34)n2)cc(C(=O)N[C@H](C)CN2CCOCC2)c1 0.631 µM

Next up: NC(=O)c1cccc(-c2nccn3nc(Nc4ccc(N5CCOCC5)cc4)nc23)c1 < 0.3 µM

Next up: COc1cc(-c2cc3nccc(-c4cn[nH]c4)c3o2)cc(OC)c1OC < 0.3 µM

Next up: Clc1cccc(Nc2nccc(-c3nccs3)n2)c1 < 0.5 µM

Next up: COc1cccc(Nc2cc(Oc3ccc(NC(=O)Nc4cc(C(C)(C)C)cc(CNC(C)=O)c4OC)c4ccccc34)ccn2)c1 0.132 µM

Next up: CC1(C)C(=O)Nc2cc(Nc3nc4c(N5CCCC5)nccn4n3)ccc21 < 0.1 µM

Next up: COCCCCO[C@H]1CNc2cc(Nc3ncc(C(N)=O)c(NC4CC4)n3)ccc2OC1 0.01 to 0.1 µM

Next up: Cc1cc(-c2cc3nccnc3c(O[C@@H]3CCOC3)n2)ccc1N1CCOCC1 0.03 µM

Next up: CC(C)n1cc(Nc2nc(C(C)(C)C)nc3cn[nH]c23)cn1 0.01 to 0.1 µM

Next up: COc1cc(C(=O)N2CCOCC2)ccc1Nc1nc2ccc(S(C)(=O)=O)cc2c2cn[nH]c12 0.1 to 1 µM

Next up: CN1CCCN(c2ccc(Nc3nc4ccc(-c5cn[nH]c5)cc4n(C)c3=O)cc2)CC1 0.0101 µM

Next up: COCCn1ncc(Nc2nc3ccc(S(C)(=O)=O)cc3c3cn[nH]c23)c1C#N 0.1 to 1 µM

Next up: CS(=O)(=O)N1CCO[C@H](COc2nc(-c3ccc4[nH]ncc4c3)cc3nccnc23)C1 0.06 µM

Next up: COCCn1cc(Nc2nc(C3CC3)nc3cn[nH]c23)cn1 0.1 to 1 µM

Next up: c1cc(N2CCOCC2)ccc1Nc1nc(C2CCC2)nc2cn[nH]c12 < 0.01 µM

Next up: COc1c(CC(N)=O)cc(C(C)(C)C)cc1NC(=O)Nc1ccc(Oc2ccnc(Nc3cc(C)cc(C)c3)c2)c2ccccc12 0.837 µM

Next up: CC(C)(C)N1CCC(n2cc(Nc3nc(-c4nc5ccccc5s4)nc4cn[nH]c34)cn2)CC1 < 0.01 µM

Next up: Cc1ccnc(Nc2cccc(-c3cnc(N4CCOCC4)o3)n2)c1 < 1 µM

Next up: CN1CCN(C2CCN(C(=O)c3ccc(Nc4nc(C5CC5)nc5cn[nH]c45)cc3)CC2)CC1 0.1 to 1 µM

Next up: NC(=O)c1cnc(Nc2ccc3c(c2)NCC(O)CO3)nc1NC1CCC1 (stereo not shown) 0.01 to 0.1 µM

Next up: CC(=O)N1C[C@H](O)C[C@@H]1c1nc(-c2ccc(C(=O)N3CCC(F)(F)CC3)cc2)c2cnc3[nH]ccc3n12 > 0.1 µM

Next up: Cn1c(=O)c(Nc2ccc(NC3CCOCC3)nc2)nc2ccc(-c3cn[nH]c3)cc21 0.0292 µM

Next up: OCCn1cc(Nc2nc(-c3ncco3)nc3cn[nH]c23)cn1 0.1 to 1 µM
